TESTED_SYSTEM: UniProtKB Q12809
Sequence (Q12809 whole entry): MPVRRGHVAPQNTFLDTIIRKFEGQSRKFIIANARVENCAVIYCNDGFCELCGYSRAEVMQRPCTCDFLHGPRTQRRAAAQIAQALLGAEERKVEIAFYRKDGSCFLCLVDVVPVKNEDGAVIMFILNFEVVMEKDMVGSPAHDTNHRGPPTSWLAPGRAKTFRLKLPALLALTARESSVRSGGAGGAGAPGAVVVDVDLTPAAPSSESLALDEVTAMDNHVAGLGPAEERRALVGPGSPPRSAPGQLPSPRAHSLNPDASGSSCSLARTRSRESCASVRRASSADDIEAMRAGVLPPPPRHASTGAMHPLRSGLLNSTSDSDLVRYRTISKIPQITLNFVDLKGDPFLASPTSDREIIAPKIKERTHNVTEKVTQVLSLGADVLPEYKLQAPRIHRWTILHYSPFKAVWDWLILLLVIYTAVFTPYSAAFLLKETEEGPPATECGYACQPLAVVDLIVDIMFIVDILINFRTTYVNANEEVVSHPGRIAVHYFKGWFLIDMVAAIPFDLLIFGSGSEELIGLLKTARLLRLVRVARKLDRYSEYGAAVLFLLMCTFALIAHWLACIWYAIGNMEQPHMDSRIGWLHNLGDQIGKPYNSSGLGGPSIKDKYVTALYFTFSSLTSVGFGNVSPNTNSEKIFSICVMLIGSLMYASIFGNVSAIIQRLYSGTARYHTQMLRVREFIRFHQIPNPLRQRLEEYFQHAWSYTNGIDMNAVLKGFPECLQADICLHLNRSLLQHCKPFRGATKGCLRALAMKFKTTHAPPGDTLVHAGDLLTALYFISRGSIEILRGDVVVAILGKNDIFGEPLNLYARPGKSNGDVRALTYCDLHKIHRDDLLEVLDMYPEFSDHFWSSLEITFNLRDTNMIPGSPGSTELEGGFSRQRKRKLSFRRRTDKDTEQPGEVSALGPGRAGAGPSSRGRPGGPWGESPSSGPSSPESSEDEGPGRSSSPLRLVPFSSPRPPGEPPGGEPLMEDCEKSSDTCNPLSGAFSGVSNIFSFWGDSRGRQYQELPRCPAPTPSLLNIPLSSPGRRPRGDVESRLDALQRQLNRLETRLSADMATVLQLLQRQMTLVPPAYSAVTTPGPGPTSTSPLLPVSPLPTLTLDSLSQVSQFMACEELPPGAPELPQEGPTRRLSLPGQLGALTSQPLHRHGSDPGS
QUANTITY_NAME: Ki (nM)
// return numeric value only (unit: nM, not printed)

N#Cc1nc(CCCNCC(F)(F)F)cc(-c2cccc(C(F)(F)F)c2)n1
500
CCCc1cc(-c2cc(C(=O)N(CCN(C)C)Cc3ccccc3)cc(C(F)(F)F)c2)nc(C#N)n1
120
N#Cc1nc(CCCN2CCOCC2)cc(-c2cccc(C(F)(F)F)c2)n1
320
N#Cc1nc(CCCNC2(C(N)=O)CCC2)cc(-c2cccc(C(F)(F)F)c2)n1
2510
N#Cc1nc(CCCN2CCC(O)CC2)cc(-c2cccc(C(F)(F)F)c2)n1
1120
CCCc1cc(-c2cc(C(=O)N(C)CCN(C)C)cc(C(F)(F)F)c2)nc(C#N)n1
710
N#Cc1nc(CCCNCC(N)=O)cc(-c2cccc(C(F)(F)F)c2)n1
3980
N#Cc1nc(CCCNC2(C(N)=O)CC2)cc(-c2cccc(C(F)(F)F)c2)n1
1580
COCCNCCCc1cc(-c2cccc(C(F)(F)F)c2)nc(C#N)n1
560

Then there is this molecule:
Provide value of Ki for this record tested with UniProtKB Q12809: "N#Cc1nc(CCCN2CCCCC2)cc(-c2cccc(C(F)(F)F)c2)n1"
160

Value source: ChEMBL document CHEMBL1268809
